- TEST_PROTOCOL: clinical
- EXPERIMENTAL_SETUP: human, in vivo, 10 mg, Tmax, median (range)
ENDPOINT_LABEL: Tmax (h)
State just the number; it will be interpreted in h.

Query: Name the recorded Tmax of the item CC[C@@H]1[C@H](F)C(=O)N[C@@H]1COc1nccc2cc(C(N)=O)c(OC)cc12 [PF-06650833] in your answer.
Result: 1

* * *

- TEST_PROTOCOL: Study 2 (MAD) plasma and urine pharmacokinetics
- Assay type: in vivo, human
- EXPERIMENTAL_SETUP: human, plasma, oral, 300 mg, MR 300 mg QD, day 14, fed (standard meal); read-out: AUCtau, geometric mean (%CV)
ENDPOINT_LABEL: AUC (ng·h/mL)
State just the number; it will be interpreted in ng·h/mL.

Query: Name the recorded AUC of the item CC[C@@H]1[C@H](F)C(=O)N[C@@H]1COc1nccc2cc(C(N)=O)c(OC)cc12 in your answer.
Result: 975

* * *

- TEST_PROTOCOL: clinical
- EXPERIMENTAL_SETUP: human, in vivo, 1 mg, AUCinf, geometric mean (%CV)
ENDPOINT_LABEL: AUC(0-inf)
I'd appreciate it if you wrote the number followed by its unit.

Query: Name the recorded AUC(0-inf) of the item CC[C@@H]1[C@H](F)C(=O)N[C@@H]1COc1nccc2cc(C(N)=O)c(OC)cc12 in your answer.
Result: 5.14 ng·h/mL

* * *

- TEST_PROTOCOL: Study 2 (MAD) plasma and urine pharmacokinetics
- Assay type: in vivo, human
- EXPERIMENTAL_SETUP: human, plasma, oral, 330 mg, IR 330 mg TID, day 14, fed (standard meal); read-out: Tmax, median (range)
ENDPOINT_LABEL: Tmax (h)
State just the number; it will be interpreted in h.

Query: Name the recorded Tmax of the item CC[C@@H]1[C@H](F)C(=O)N[C@@H]1COc1nccc2cc(C(N)=O)c(OC)cc12 [PF-06650833] in your answer.
Result: 2

* * *

- TEST_PROTOCOL: Study 2 (MAD) plasma and urine pharmacokinetics
- Assay type: in vivo, human
- EXPERIMENTAL_SETUP: human, plasma, oral, 250 mg, IR 250 mg BID, day 1, fed (standard meal); read-out: Tmax, median (range)
ENDPOINT_LABEL: Tmax

Query: Name the recorded Tmax of the item CC[C@@H]1[C@H](F)C(=O)N[C@@H]1COc1nccc2cc(C(N)=O)c(OC)cc12 in your answer.
Result: 4 h

* * *

- TEST_PROTOCOL: clinical
- EXPERIMENTAL_SETUP: human, in vivo, 1 mg, Cmax, geometric mean (%CV)
ENDPOINT_LABEL: Cmax (ng/mL)
State just the number; it will be interpreted in ng/mL.

Query: Name the recorded Cmax of the item CC[C@@H]1[C@H](F)C(=O)N[C@@H]1COc1nccc2cc(C(N)=O)c(OC)cc12 in your answer.
Result: 1.75

* * *

- TEST_PROTOCOL: clinical
- EXPERIMENTAL_SETUP: human, in vivo, 3 mg, AUClast, geometric mean (%CV)
ENDPOINT_LABEL: AUC(0-t)
I'd appreciate it if you wrote the number followed by its unit.

Query: Name the recorded AUC(0-t) of the item CC[C@@H]1[C@H](F)C(=O)N[C@@H]1COc1nccc2cc(C(N)=O)c(OC)cc12 in your answer.
Result: 17 ng·h/mL

* * *

- TEST_PROTOCOL: clinical
- EXPERIMENTAL_SETUP: human, in vivo, 1000 mg, AUClast, geometric mean (%CV)
ENDPOINT_LABEL: AUC(0-t) (ng·h/mL)
State just the number; it will be interpreted in ng·h/mL.

Query: Name the recorded AUC(0-t) of the item CC[C@@H]1[C@H](F)C(=O)N[C@@H]1COc1nccc2cc(C(N)=O)c(OC)cc12 in your answer.
Result: 2270

* * *

- TEST_PROTOCOL: clinical
- EXPERIMENTAL_SETUP: human, in vivo, 3 mg, Cmax, geometric mean (%CV)
ENDPOINT_LABEL: Cmax (ng/mL)
State just the number; it will be interpreted in ng/mL.

Query: Name the recorded Cmax of the item CC[C@@H]1[C@H](F)C(=O)N[C@@H]1COc1nccc2cc(C(N)=O)c(OC)cc12 in your answer.
Result: 5.54

* * *

- TEST_PROTOCOL: clinical
- EXPERIMENTAL_SETUP: human, in vivo, 10 mg, AUClast, geometric mean (%CV)
ENDPOINT_LABEL: AUC(0-t) (ng·h/mL)
State just the number; it will be interpreted in ng·h/mL.

Query: Name the recorded AUC(0-t) of the item CC[C@@H]1[C@H](F)C(=O)N[C@@H]1COc1nccc2cc(C(N)=O)c(OC)cc12 in your answer.
Result: 81.9

* * *

- TEST_PROTOCOL: Study 2 (MAD) plasma and urine pharmacokinetics
- Assay type: in vivo, human
- EXPERIMENTAL_SETUP: human, urine, oral, range for IR 25 mg BID, IR 330 mg TID and MR 300 mg QD; read-out: Renal clearance
- Method: Subjects were enrolled sequentially into seven cohorts. Within each cohort, eight subjects and two subjects were randomized to receive PF-06650833 and placebo, respectively. Doses for all cohorts were administered after a standard (not high-fat) meal. […] PF-06650833 IR 330 mg TID (cohort 6) and an MR tablet at a dose of 300 mg QD (cohort 7) were also evaluated (see Fig. 1b for final dosing scheme). […] PK parameters were calculated using non-compartmental analysis of concentration-time data. […]
ENDPOINT_LABEL: CL renal

Query: Name the recorded CL renal of the item CC[C@@H]1[C@H](F)C(=O)N[C@@H]1COc1nccc2cc(C(N)=O)c(OC)cc12 [PF-06650833] in your answer.
Result: 14 to 19 mL/min

* * *

- TEST_PROTOCOL: Study 2 (MAD) plasma and urine pharmacokinetics
- Format: in vivo, human
- EXPERIMENTAL_SETUP: human, urine and plasma, oral, 300 mg, MR 300 mg QD, day 14, fed (standard meal); read-out: CLr (renal clearance), geometric mean (%CV)
ENDPOINT_LABEL: CL renal (mL/min)
State just the number; it will be interpreted in mL/min.

Query: Name the recorded CL renal of the item CC[C@@H]1[C@H](F)C(=O)N[C@@H]1COc1nccc2cc(C(N)=O)c(OC)cc12 [PF-06650833] in your answer.
Result: 15.4

* * *

- TEST_PROTOCOL: Study 2 (MAD) plasma and urine pharmacokinetics
- Assay type: in vivo, human
- EXPERIMENTAL_SETUP: human, plasma, oral, 250 mg, IR 250 mg BID, day 14, fed (standard meal); read-out: Cmax, geometric mean (%CV)
ENDPOINT_LABEL: Cmax (ng/mL)
State just the number; it will be interpreted in ng/mL.

Query: Name the recorded Cmax of the item CC[C@@H]1[C@H](F)C(=O)N[C@@H]1COc1nccc2cc(C(N)=O)c(OC)cc12 [PF-06650833] in your answer.
Result: 238

* * *

- TEST_PROTOCOL: Study 2 (MAD) plasma and urine pharmacokinetics
- Type: in vivo, human
- EXPERIMENTAL_SETUP: human, plasma, oral, 750 mg, IR 750 mg BID, day 1, fed (standard meal); read-out: Cmax, geometric mean (%CV)
ENDPOINT_LABEL: Cmax (ng/mL)
State just the number; it will be interpreted in ng/mL.

Query: Name the recorded Cmax of the item CC[C@@H]1[C@H](F)C(=O)N[C@@H]1COc1nccc2cc(C(N)=O)c(OC)cc12 [PF-06650833] in your answer.
Result: 470

* * *

- TEST_PROTOCOL: clinical
- EXPERIMENTAL_SETUP: human, in vivo, 3 mg, AUCinf, geometric mean (%CV)
ENDPOINT_LABEL: AUC(0-inf) (ng·h/mL)
State just the number; it will be interpreted in ng·h/mL.

Query: Name the recorded AUC(0-inf) of the item CC[C@@H]1[C@H](F)C(=O)N[C@@H]1COc1nccc2cc(C(N)=O)c(OC)cc12 in your answer.
Result: 17.3

* * *

- TEST_PROTOCOL: Study 2 (MAD) plasma and urine pharmacokinetics
- Format: in vivo, human
- EXPERIMENTAL_SETUP: human, plasma, oral, 330 mg, IR 330 mg TID, day 1, fed (standard meal); read-out: AUCtau, geometric mean (%CV)
ENDPOINT_LABEL: AUC (µg·h/mL)
State just the number; it will be interpreted in µg·h/mL.

Query: Name the recorded AUC of the item CC[C@@H]1[C@H](F)C(=O)N[C@@H]1COc1nccc2cc(C(N)=O)c(OC)cc12 in your answer.
Result: 1.5

* * *

- TEST_PROTOCOL: clinical
- EXPERIMENTAL_SETUP: human, in vivo, 300 mg, Tmax, median (range)
ENDPOINT_LABEL: Tmax (h)
State just the number; it will be interpreted in h.

Query: Name the recorded Tmax of the item CC[C@@H]1[C@H](F)C(=O)N[C@@H]1COc1nccc2cc(C(N)=O)c(OC)cc12 [PF-06650833] in your answer.
Result: 4
